target: succinate dehydrogenase (Botrytis cinerea, UniProt A0A384J5E4+A0A384J8V8+A0A384JHJ5); construct: succinate-DCPIP reductase assay with KCN; assay: Enzyme inhibition: succinate dehydrogenase activity in Botrytis cinerea mitochondria (DCPIP reduction); assay type: biochemical; conditions: concentration required to inhibit the rate of DCPIP reduction by 50%; Botrytis cinerea isolate Nick mitochondria; read-out: I50 (μM conc.)
Sequence (A0A384J5E4 1-300): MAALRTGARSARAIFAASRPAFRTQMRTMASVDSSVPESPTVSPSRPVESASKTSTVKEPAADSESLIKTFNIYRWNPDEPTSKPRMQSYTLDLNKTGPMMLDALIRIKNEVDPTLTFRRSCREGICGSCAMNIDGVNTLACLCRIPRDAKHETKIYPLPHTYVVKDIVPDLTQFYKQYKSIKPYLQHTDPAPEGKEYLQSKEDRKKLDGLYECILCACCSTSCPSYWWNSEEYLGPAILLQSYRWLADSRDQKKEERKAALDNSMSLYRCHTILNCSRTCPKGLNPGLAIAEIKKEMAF
Sequence (A0A384J8V8 1-189): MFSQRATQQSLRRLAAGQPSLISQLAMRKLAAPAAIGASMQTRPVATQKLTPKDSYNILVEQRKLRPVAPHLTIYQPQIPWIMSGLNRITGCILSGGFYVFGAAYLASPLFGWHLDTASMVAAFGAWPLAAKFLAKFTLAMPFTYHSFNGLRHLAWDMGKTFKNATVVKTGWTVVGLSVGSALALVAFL
Sequence (A0A384JHJ5 1-192): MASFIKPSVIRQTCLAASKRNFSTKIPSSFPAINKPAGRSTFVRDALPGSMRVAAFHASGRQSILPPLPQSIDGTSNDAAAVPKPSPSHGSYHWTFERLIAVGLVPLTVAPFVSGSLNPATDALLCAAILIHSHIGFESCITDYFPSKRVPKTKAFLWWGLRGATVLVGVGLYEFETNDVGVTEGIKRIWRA
Sequence (A0A384K456 1-647 partner): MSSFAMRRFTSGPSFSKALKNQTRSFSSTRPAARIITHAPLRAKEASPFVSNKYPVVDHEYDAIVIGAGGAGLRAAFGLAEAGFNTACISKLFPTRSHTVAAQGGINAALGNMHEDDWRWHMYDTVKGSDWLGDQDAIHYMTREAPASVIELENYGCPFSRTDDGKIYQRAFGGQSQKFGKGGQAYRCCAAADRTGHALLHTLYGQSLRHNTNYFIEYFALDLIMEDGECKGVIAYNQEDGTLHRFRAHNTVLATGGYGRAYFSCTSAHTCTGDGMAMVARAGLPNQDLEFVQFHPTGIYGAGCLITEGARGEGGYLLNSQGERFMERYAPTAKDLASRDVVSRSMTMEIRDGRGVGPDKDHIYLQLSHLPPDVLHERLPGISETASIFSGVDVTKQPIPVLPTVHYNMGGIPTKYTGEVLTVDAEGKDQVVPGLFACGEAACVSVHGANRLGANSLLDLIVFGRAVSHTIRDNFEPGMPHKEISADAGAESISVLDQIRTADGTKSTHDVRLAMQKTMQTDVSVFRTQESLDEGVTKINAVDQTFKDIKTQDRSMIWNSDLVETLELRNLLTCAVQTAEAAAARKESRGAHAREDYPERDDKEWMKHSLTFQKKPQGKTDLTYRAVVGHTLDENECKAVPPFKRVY
measuredParameter: IC50 (µM)
Field format: number, assumed µM, no unit text.

compound	experimentalTarget	measuredParameter	recordedNumber
Cn1cc(C(=S)Nc2ccccc2C2CCCCCC2)c(C(F)(F)F)n1 [Example 78]	succinate dehydrogenase (Botrytis cinerea, UniProt A0A384J5E4+A0A384J8V8+A0A384JHJ5)	IC50	8.7
Cn1cc(C(=O)Nc2ccccc2OC2(C)CCCC2)c(C(F)F)n1 [Example 35]	succinate dehydrogenase (Botrytis cinerea, UniProt A0A384J5E4+A0A384J8V8+A0A384JHJ5)	IC50	0.012
Cc1c(C(=O)Nc2ccccc2C2CCCCCC2)c(C(F)(F)F)nn1C [Example 99]	succinate dehydrogenase (Botrytis cinerea, UniProt A0A384J5E4+A0A384J8V8+A0A384JHJ5)	IC50	0.065

The compound Cn1cc(C(=O)Nc2ccccc2[C@@H]2C[C@H]3CC[C@@H]2C3)c(C(F)(F)F)n1 (relative stereo) [Example 27] showed IC50 equal to 0.0048

----------
Quick reference for Disease Control Rating at 500 ppm among some molecules
test system: Botrytis cinerea; assay: Eggplant grey mold; type: in vivo; design: key: 0: No disease control; 1: Low level of control; 2: Moderate control; 3: High level of control; conditions: eggplant sprayed with 500 ppm, inoculated 24 h later, rated after 3-4 days
Just the number, please, no unit attached.

Reference set, count: 3
molecule	experimentalTarget	measuredParameter	recordedNumber
Cn1cc(C(=O)Nc2ccccc2OC2CCCCC2)c(C(F)(F)F)n1	Botrytis cinerea	Disease Control Rating at 500 ppm	0
Cn1cc(C(=O)Nc2ccccc2C2CC(C)(C)CC(C)(C)C2)c(C(F)(F)F)n1	Botrytis cinerea	Disease Control Rating at 500 ppm	0
Cn1cc(C(=O)Nc2ccccc2C2=CCC(C(C)(C)C)CC2)c(C(F)(F)F)n1 (centres unmarked)	Botrytis cinerea	Disease Control Rating at 500 ppm	1

Form: molecule = `Cn1cc(C(=O)Nc2ccccc2CC2CCCCC2)c(C(F)(F)F)n1` ; Disease Control Rating at 500 ppm = 0

Disease Control Rating at 500 ppm measured on `Cn1cc(C(=O)Nc2ccccc2C=C2CCCC2)c(C(F)F)n1` = 0

----------
target: succinate dehydrogenase (Botrytis cinerea, UniProt A0A384J5E4+A0A384J8V8+A0A384JHJ5); construct: succinate-DCPIP reductase assay with KCN; assay: Enzyme inhibition: succinate dehydrogenase activity in Botrytis cinerea mitochondria (DCPIP reduction); assay type: biochemical; conditions: concentration required to inhibit the rate of DCPIP reduction by 50%; Botrytis cinerea isolate Nick mitochondria; read-out: I50 (μM conc.)
Rule: measured IC50 below 0.02 µM gets TRUE; anything equal to or greater than 0.02 µM gets FALSE.

compound	discreteLabel
Cc1nn(C)c(Cl)c1C(=O)Nc1ccccc1C1CCCCCC1	FALSE
C=C(c1ccccc1NC(=O)c1cn(C)nc1C(F)(F)F)C1CCCC1	TRUE
Cn1cc(C(=O)Nc2ccccc2OCC2CCC2)c(C(F)(F)F)n1	FALSE

hey, is IC50 for `Cn1cc(C(=O)Nc2ccccc2CC2CCCCCC2)c(C(F)(F)F)n1` lower than 0.02 µM or not?
FALSE

is_below(IC50, 0.02 µM) for `Cn1cc(C(=O)Nc2ccccc2C2CCCCCC2)c(C(F)F)n1` ?
TRUE

Strictly below 0.02 µM in IC50? `Cn1cc(C(=O)Nc2ccccc2C2=CCOCC2)c(C(F)(F)F)n1`
FALSE

Please indicate whether the reported IC50 of `Cc1cccc(NC(=O)c2cn(C)nc2C(F)(F)F)c1C1CCCCC1` is strictly below 0.02 µM.
FALSE

Dear colleague, could you confirm whether IC50 of Cn1cc(C(=O)Nc2ccccc2C2=CCC(C(C)(C)C)CC2)c(C(F)F)n1 (stereo not drawn) falls below 0.02 µM? Thanks.
TRUE
